Target: Glutamate NMDA receptor; Grin1/Grin2b (Rattus norvegicus, UniProt P35439+Q00960)
Sequence (Q00960 whole entry, other chains not shown): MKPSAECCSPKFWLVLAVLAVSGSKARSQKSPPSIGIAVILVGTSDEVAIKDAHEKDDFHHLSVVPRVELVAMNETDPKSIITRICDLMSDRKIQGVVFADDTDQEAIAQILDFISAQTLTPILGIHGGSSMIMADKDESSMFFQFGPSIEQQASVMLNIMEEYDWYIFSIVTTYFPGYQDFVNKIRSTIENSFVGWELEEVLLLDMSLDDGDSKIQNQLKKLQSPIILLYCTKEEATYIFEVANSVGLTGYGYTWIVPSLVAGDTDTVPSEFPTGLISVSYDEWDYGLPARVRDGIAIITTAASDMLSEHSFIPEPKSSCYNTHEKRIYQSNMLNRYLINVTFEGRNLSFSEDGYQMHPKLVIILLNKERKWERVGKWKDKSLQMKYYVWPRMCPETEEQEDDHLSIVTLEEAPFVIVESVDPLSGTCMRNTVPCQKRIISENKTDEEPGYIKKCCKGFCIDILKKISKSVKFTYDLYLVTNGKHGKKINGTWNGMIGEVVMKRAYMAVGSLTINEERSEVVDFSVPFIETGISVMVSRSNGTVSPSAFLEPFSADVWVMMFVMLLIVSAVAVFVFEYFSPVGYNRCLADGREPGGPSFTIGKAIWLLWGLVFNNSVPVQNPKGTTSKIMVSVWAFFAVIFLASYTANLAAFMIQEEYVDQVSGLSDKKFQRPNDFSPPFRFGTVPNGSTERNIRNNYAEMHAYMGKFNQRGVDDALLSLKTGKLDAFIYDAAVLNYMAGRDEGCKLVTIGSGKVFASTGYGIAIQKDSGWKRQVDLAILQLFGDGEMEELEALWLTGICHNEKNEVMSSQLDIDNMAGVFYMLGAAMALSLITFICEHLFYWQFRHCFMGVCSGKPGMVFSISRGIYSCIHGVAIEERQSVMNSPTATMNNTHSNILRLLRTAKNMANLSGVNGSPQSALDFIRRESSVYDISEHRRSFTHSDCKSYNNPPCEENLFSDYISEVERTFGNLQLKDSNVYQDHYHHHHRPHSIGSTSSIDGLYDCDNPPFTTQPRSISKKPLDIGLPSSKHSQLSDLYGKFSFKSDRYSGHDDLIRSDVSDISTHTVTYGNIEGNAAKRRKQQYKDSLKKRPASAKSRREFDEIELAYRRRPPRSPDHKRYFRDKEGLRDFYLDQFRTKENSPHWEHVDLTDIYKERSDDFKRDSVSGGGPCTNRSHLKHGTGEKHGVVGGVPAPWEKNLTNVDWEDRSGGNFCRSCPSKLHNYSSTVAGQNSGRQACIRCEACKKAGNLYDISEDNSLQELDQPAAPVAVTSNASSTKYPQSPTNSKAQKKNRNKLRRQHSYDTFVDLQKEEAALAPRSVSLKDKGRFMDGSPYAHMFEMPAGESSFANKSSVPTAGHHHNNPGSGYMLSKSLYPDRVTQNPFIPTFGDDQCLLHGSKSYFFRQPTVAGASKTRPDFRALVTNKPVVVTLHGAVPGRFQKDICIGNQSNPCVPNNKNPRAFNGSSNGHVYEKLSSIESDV
Assay: Mean inhibitory concentration against rat N-methyl-D-aspartate (NMDA) glutamate receptor 1a/2B expressed in Xenopus oocytes
pIC50: −log10 of the molar value.
QUANTITY_NAME: pIC50

[[record]]
smiles_repr = "COc1cc2c(cc1OC)[C@H](C[C@H](O)c1ccc(Cl)cc1)N(C)CC2"
endpoint_result = 5.88

[[record]]
smiles_repr = "COc1cc2c(cc1OC)[C@H](C[C@H](O)c1ccc(Cl)cc1)NCC2"
endpoint_result = 4.98

[[record]]
smiles_repr = "COc1ccc([C@@H](O)C[C@H]2c3cc(OC)c(OC)cc3CCN2C)cc1"
endpoint_result = 5.50

